System: human CD3 (human) (UniProt P07766)
Sequence (P07766 23-207): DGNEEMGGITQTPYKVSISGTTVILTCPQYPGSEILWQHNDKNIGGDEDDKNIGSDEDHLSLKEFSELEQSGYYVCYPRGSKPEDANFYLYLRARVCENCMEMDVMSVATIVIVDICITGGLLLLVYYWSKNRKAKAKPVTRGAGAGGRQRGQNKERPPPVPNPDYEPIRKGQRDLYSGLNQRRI
Measurement protocol: cell-based or functional assay
Assay readout: Apo-One Apoptosis Assay, 12.5 ng/ml, second block (ratio to Fc null)
Form rule: numeric answer, no unit written next to it.

Consider the following illustrative entries.
anti-CD3 HuFR antibody 8 (heavy chain BD20611, light chain BD21137) (antibody, part only; not given: few VH framework 4 residues, V domains shown, part only) VH, part: QVQLVESGAEVKKPGASVKVSCKASGYTFTRYTMHWVRQAPGKGLEWMGYINPSRGYTNYNQKFKDRLTISKDTSKNQVVLTMTNMDPVDTATYYCARYYDDHYCLDYVTVSSASTKGPS VL: DIQMTQSPSTLSASVGDRVTITCSASSSVSYMNWYQQKPGQPPKLLIYDTSKLASGVPSRFSGSGSGTDFTFTISSLQPEDIATYYCQQWSSNPFTFGQGTKVEIKFGQGTKVEIKR = 2
anti-CD3 HuFR antibody 5 (heavy chain BD20611, light chain BD21134) (antibody, part only; not given: Heavy stretch before framework 4, V domains shown, part only) VH, part: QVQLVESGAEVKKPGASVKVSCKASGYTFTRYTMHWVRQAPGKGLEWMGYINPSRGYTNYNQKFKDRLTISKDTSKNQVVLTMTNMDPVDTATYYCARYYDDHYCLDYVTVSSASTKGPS VL: EIVMTQSPATLSVSPGERATLSCSASSSVSYMNWYQQKPGQPPKLLIYDTSKLASGVPSRFSGSGSGTEFTLTISSLQPDDFATYYCQQWSSNPFTFGQGTKVEIKFGQGTKVEIKR = 2.4
anti-CD3 HuFR antibody 1 (heavy chain BD20610, light chain BD21130) (antibody, part only; not given: Heavy stretch before framework 4, V domains shown, part only) VH, part: QVQLVESGAEVKKPGASVKVSCKASGYTFTRYTMHWVRQAPGKGLEWMGYINPSRGYTNYNQKFKDRVTISVDTSKNQFSLKLSSVTAADTAVYYCARYYDDHYCLDYVTVSSASTKGPS VL: DIQMTQSPSSLSASVGDRVTITCSASSSVSYMNWYQQKPGQPPKLLIYDTSKLASGVPDRFSGSGSGTDFTLKISRVEAEDVGVYYCQQWSSNPFTFGQGTKVEIKFGQGTKVEIKR = 1.6
anti-CD3 HuFR antibody 3 (heavy chain BD20611, light chain BD21132) (antibody, part only; not given: Heavy stretch before framework 4, V domains shown, part only) VH, part: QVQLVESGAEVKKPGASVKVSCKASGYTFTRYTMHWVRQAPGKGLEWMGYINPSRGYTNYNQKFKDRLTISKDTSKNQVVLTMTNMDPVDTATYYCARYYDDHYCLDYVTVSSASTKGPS VL: EIVLTQSPATLSLSPGERATLSCSASSSVSYMNWYQQKPGKAPKLLIYDTSKLASGVPSRFSGSGSGTEFTLTISSLQPDDFATYYCQQWSSNPFTFGQGTKVEIKFGQGTKVEIKR = 1.3
anti-CD3 HuFR antibody 4 (heavy chain BD20611, light chain BD21133) (antibody, part only; not given: Heavy stretch before framework 4, V domains shown, part only) VH, part: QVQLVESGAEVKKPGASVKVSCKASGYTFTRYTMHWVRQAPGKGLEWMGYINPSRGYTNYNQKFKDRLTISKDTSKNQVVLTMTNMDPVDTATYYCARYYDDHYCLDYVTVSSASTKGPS VL: DIVMTQSPLSLPVTPGEPASISCSASSSVSYMNWYQQKPGQPPKLLIYDTSKLASGVPSRFSGSGSGTEFTLTISSLQPDDFATYYCQQWSSNPFTFGQGTKVEIKFGQGTKVEIKR = 2.8

Now look at this entry.
### Prompt Request the reported Apo-One Apoptosis Assay, 12.5 ng/ml, second block (ratio to Fc null) associated with anti-CD3 HuFR antibody 9 (heavy chain BD20613, light chain BD21138) (antibody, part only; not given: few VH framework 4 residues, V domains shown, part only) VH, part: QVQLQESGPGLVKPSETLSLTCAVSGYTFTRYTMHWVRQAPGKGLEWVGYINPSRGYTNYNQKFKDRFTISRDDSKNTAYLQMNSLKTEDTAVYYCTRYYDDHYCLDYVTVSSASTKGPS VL: DIQMTQSPSTLSASVGDRVTITCSASSSVSYMNWYQQKPGKAPKLLIYDTSKLASGVPDRFSGSGSGTDFTLKISRVEAEDVGVYYCQQWSSNPFTFGQGTKVEIKFGQGTKVEIKR
### Response 1.8
